All values here come from PubChem BioAssay.

assay remarks: viability loss in pontine glioma line – cell-based, JHH-DIPG-1, MIPE4.0, CellTiter-Glo, qHTS, dose response (AID 1347062);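 as to AC50: cells exposed to compound for two days before readout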
experimental conditions: JHH-DIPG-1 viability, CellTiter-Glo ATP luminescence
Results filed as inconclusive are left out. The source made the active and inactive calls. The limit is not given here; nearly all actives have AC50 up to about 27 µM.
Valid outcomes are listed here; reply with one: 1 (yes) (active), 0 (no) (inactive)

- compound: "CN(C(Cc1ccc(OS(=O)(=O)c2cccc3cnccc23)cc1)C(=O)N1CCN(c2ccccc2)CC1)S(=O)(=O)c1cccc2cnccc12 (centres undefined)"
  class label: "0 (no)"

Recorded call for OCCNC1CCCc2c1[nH]c1ccc(-c3ccccc3)cc21 (centres undefined) ? 1 (yes)

Recorded call for `CC(C)C[C@H](NC(=O)c1cc2ccccc2s1)C(=O)N1CCN(C(=O)[C@H](CO)NS(=O)(=O)c2ccc(Cl)cc2Cl)CC1` ? 0 (no)

Recorded call for `O=c1c(-c2ccc(O)cc2)coc2cc(O[C@@H]3O[C@H](CO)[C@@H](O)[C@H](O)[C@H]3O)ccc12` ? 0 (no)
